Let's look at some pKi data for D(1B) dopamine receptor (Homo sapiens, UniProt P21918) that I collected from the literature.
Numbers only, as −log10 of the molar value.

Solved cases below.
molecule: Fc1ccc(SCCCN2CCN(c3ncccn3)CC2)cc1
pKi: 5.86
//
molecule: CN1CCc2cc(Cl)c(O)cc2[C@H]2c3cccc(CO)c3CC[C@@H]21
pKi: 8.13

Give me pKi for each of these molecules, listed below.
1. CN1CCc2cc(Cl)c(O)cc2[C@@H](c2ccc(CN(C)S(=O)(=O)c3ccccc3)cc2)C1
2. COc1ccccc1N1CCN(CCCNC(=O)NN(Cc2ccccc2)c2ccccc2)CC1
3. CN1CCCc2ccccc2Cc2ccc(O)cc2CC1
4. O=c1ccc2c(N3CCN(CCCCOc4ccn5nccc5c4)CC3)ccc(O)c2[nH]1
5. COc1cc2c(cc1O)C(c1ccccc1Br)CNCC2 (stereo unspecified)
6. COc1ccccc1N1CCN(CCCNC(=O)NN(Cc2ccc(F)cc2)c2ccccc2)CC1

Reply:
1. 8.92
2. 6.47
3. 8.01
4. 4.89
5. 7.09
6. 6.00

Give me pKi for each of these molecules, listed below.
1. O=C1/C(=N/c2cccc(C(F)(F)F)c2)c2ccccc2N1c1cccc(OCCN2CCCC2)c1
2. COc1ccc2[nH]c3c(c2c1)CCN(C)CCc1ccccc1C3
3. CC(=O)NCC#Cc1ccc2c(c1)C=C([N+](=O)[O-])C(C(F)(F)F)O2 (stereo unspecified)
4. CN1CCc2cc(Cl)c(O)cc2[C@H]2c3cccc(N)c3CC[C@@H]21
5. COc1cc2c(cc1OC)Cc1ccccc1CCCN(C)CC2
6. Fc1ccc(COC2CCN(Cc3cc4ccc(Cl)cc4[nH]3)CC2)cc1F
7. CCNC(=O)Nc1ccc2c(c1)CC[C@H]1[C@H]2c2cc(O)c(Cl)cc2CCN1C
8. CN1CCN(C2=Nc3cc(Cl)ccc3N(NC(=O)c3c(F)cccc3C(F)(F)F)c3ccccc32)CC1

Reply:
1: 6.03; 2: 8.44; 3: 5.96; 4: 8.15; 5: 6.29; 6: 5.40; 7: 8.15; 8: 8.15
